Tested on: human TGF-beta1 mRNA
ASSAY SUMMARY: Dose-dependent antisense inhibition of human TGF-beta1 in HuVEC cells, Lipofectamine 2000, 0.3292-80 nM, comparison with oligos of U.S. Pat. No. 6,436,909 (Example 4)
Format: cell-based
CONDITIONS USED: 0.9877 nM
In the oligonucleotide strings, read from the 5' end, every base follows the letter of its sugar. An asterisk marks phosphorothioate; unmarked linkages are phosphodiester. Other units and linkages are bracketed, terminal groups are in braces. A string of capitals states the bases alone. e = 2'-O-(2-methoxyethyl) (MOE); [5mC] = 5-methylcytosine; d = 2'-deoxy (DNA)
The reader will find reported percent inhibition of TGF-beta1 values listed item by item below.

SUBSTANCE | UNIT OF MEASUREMENT | percent inhibition of TGF-beta1
414035 (antisense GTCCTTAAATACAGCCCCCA; sugars from the 5' end e2 d13 e5, backbone and methylation of C not given here) [compound 414035] | % | 84
413982 (antisense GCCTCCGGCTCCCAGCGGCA; sugars from the 5' end e2 d13 e5, backbone and methylation of C not given here) [compound 413982] | % | 87
414040 (antisense e[5mC]*eT*d[5mC]*dT*d[5mC]*dT*d[5mC]*d[5mC]*dA*dT*d[5mC]*dT*dT*dT*dA*eA*eT*eG*eG*eG) [compound 414040] | % | 90
414036 (antisense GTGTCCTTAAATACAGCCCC; sugars from the 5' end e2 d13 e5, backbone and methylation of C not given here) [compound 414036] | % | 83
